# System: RPMI-8226 leukemia
# Experiment Summary: NCI-60 one-dose screen, 48 h (100 = growth as untreated, 0 = no growth, -100 = all killed)
# Condition: 10 µM unless noted
Compounds without any hit were thinned out: in the full panel of roughly 83,000, 20% have a hit.
Give growth for every item shown.
Value expressed in %; do not type the unit.

Value of measured growth for the entry COc1ccccc1NC(=O)N=Nc1c(O)[nH]c2ccccc12 : 84.8

C=CCn1c(SCC(=O)Nc2ccc(C(=O)/C=C/c3ccc(Cl)cc3)cc2)nnc1-c1ccc(Br)cc1 yielded growth of -28.1

growth in this record for CC(=O)c1c(C)nc2ccccc2c1/C=C/c1ccc(F)cc1 : 66.5

GET /value?item= CN(C)Cc1ccc(O)c(C(=O)O)c1 &field=growth returns 104

So, OB1OCc2cc(/C=C/c3cccc(C(F)(F)F)c3)ccc21 ? Its growth was 15.7

Reported growth of COc1ccc(OC)c(/C=N/Nc2ncnc3c2c(C)nn3C)c1 : 100

Lab note: measured growth of N#CC1=C(N)Oc2c(c(=O)[nH]c3ccc(Cl)cc23)C12C(=O)c1ccccc1C2=O was 96.2

Lab book: growth of CCOC(=O)c1cc(C)n(-c2ccc(C(=O)O)cc2)c1C noted as 104

So, CC(=O)N1N=C(c2ccc(Nc3nc(Nc4ccccc4)nc(Nc4ccccc4)n3)cc2)CC1c1ccccc1 (stereo not given) ? Its growth was 59.9

For reference, reported growth for CCOC(=O)C1=C(c2ccccc2)N=C2SC=C(c3ccc(Cl)cc3)N2C1c1ccc(Cl)cc1 (stereo not given) stands at 65.9

###

# Test system: SK-MEL-28 melanoma
# Experiment Summary: NCI-60 one-dose screen, 48 h (100 = growth as untreated, 0 = no growth, -100 = all killed)
# Condition: 10 µM unless noted
Compounds without any hit were thinned out: in the full panel of roughly 83,000, 20% have a hit.
Entries are sorted into classes by growth as follows: range 1 = under 40%, range 2 = from 40% up to 90%, range 3 = 90% and over

Sort into band: O=C1/C(=C\c2ccc3nccnc3c2)SC(=S)N1CCc1ccc(O)cc1
range 3

Just checking, what class would you give COC(=O)[C@]12CCC(C)(C)C[C@H]1[C@H]1/C(=N/OCCc3nn[nH]n3)C[C@@H]3[C@@]4(C)CC[C@H](OC(C)=O)C(C)(C)[C@@H]4CC[C@@]3(C)[C@]1(C)CC2 here?
range 2

The entry to classify is O=C(COc1ccc(-c2nc3cc(Cl)c(Cl)cc3[nH]2)cc1)N=Nc1c(O)[nH]c2ccc(Cl)cc12 ; which class holds it?
range 2

Lab note: which band did C=CCN=c1sc2c(n1NC(=O)c1cc3ccc1CCc1ccc(cc1)CC3)C(=O)c1ccccc1C2=O land in?
range 1

// bin(item) where item = O=S(=O)(NCCNc1nccc(-c2c(-c3ccc(F)c(O)c3)nc3sccn23)n1)c1ccc(O)cc1
range 2

Field: class (growth) — entry: Cc1c[n+](Cc2ccc3ccccc3c2)cn1Cc1ccc2ccccc2c1
range 1

State the class of the molecule shown: Cc1ccc(CNc2ccc3nc(CCC4CCCCC4)[nH]c3c2)cc1
range 1

Which class holds Cc1ccc2c(n1)C(=O)C(Br)=C(CC(C)C)C2=O ?
range 3

For the record COc1cc(OCc2cccc(Br)c2C)cc(OC)c1C=O , report the class its growth corresponds to.
range 3

Hello team, could you let me know which band the following molecule falls into: CCCCn1c(=O)[nH]c(N)c([C@@H]2c3c([nH]c(=O)n(CCCC)c3=O)Oc3ccc4ccccc4c32)c1=O
range 2

Please report the category associated with Cn1ccnc1C(=O)/C=C/c1ccc(C(=O)Nc2ccc(Cl)cc2)cc1 , nothing else.
range 2

Hello team, could you let me know which band the following molecule falls into: COc1ccc(-c2noc(C(=O)O)c2-c2cc(OC)c(OC)c(OC)c2)cc1
range 2

Each molecule maps to one class by growth. Which class for O=C(Nc1ccc(Oc2cccc(Cl)c2)c(Cl)c1)c1cccnc1 ?
range 2

Record COc1c(C(=O)Nc2ccc(C)c(Br)c2)ccc2ccccc12 — which class?
range 3

State the class of the molecule shown: COc1ccc(-c2ccc(-c3ccc(C(=N)N)cc3)s2)cc1Cl
range 3

State the band of CCNCCNc1cc(C2CCCCC2)c(C#N)c2nc3ccccc3n12
range 1

For Cc1ccc2c(c1)=C/C(=C\c1cc(-c3ccccc3)oc1O)C(=O)N=2 , which growth bin applies?
range 3

Which growth band matches c1csc(-c2ccc(CNc3c4ccccc4nc4ccccc34)cc2)c1 ?
range 1

Which bin should I file O=C1/C=C/[C@@H](O)[C@@H]2C[C@@H](O)C[C@H]2/C=C/CCC[C@H](CCc2ccccc2)O1 under?
range 1

Which category fits this record: COc1ccc(/C=C/C(=O)c2cc3c(N)c(C(=O)Nc4cccc5ccccc45)sc3nc2C)cc1
range 2

Each molecule maps to one class by growth. Which class for O=C(CN1C(=O)S/C(=C\c2ccccc2)C1=O)Nc1ncc(Cc2ccccc2Cl)s1 ?
range 3

Category of Nc1nc2ccccc2c2c1S(=O)(=O)c1ccc(Cl)cc1C2=O :
range 1

Which of the defined bands does the recorded growth of Cc1ccc(NC(=O)Cn2cc(CN3CCN(c4ccnc5cc(Cl)ccc45)CC3)nn2)cc1 sit within?
range 3

Returns: class label. Input: C=C1CC[C@@H]2[C@](C)(COC(C)=O)[C@H](OC(C)=O)CC[C@@]2(C)[C@@H]1CC(Nc1ccc(S(=O)(=O)Nc2ncccn2)cc1)C1=CCOC1=O (stereo not given in full)
range 1

Which class does Oc1c(I)cc(I)cc1CNCCN(Cc1ccccn1)Cc1ccccn1 fall in?
range 1

Which growth category applies to Cc1nc2sc(C(=O)Nc3ccc(Br)cc3)c(N)c2cc1C(O)c1ccccc1 (stereo not given) here?
range 2

Quick check: band for CN(/C(N)=N/N=C/c1c2ccccc2cc2ccccc12)C1CCCCC1
range 2

GET /class?item= CCCCCCCCCCC(CN(CC)CC)C(O)c1ccccc1 (stereo not given)
range 1

Which growth band matches Cc1[nH]c(C(=O)Nc2ccccc2OC2CCNCC2)c(Cl)c1Cl ?
range 1

Which bin, given its growth, does C/C(=N\O)c1ccc(Cl)cc1 occupy?
range 3

Which class does COc1ccc(Nc2ncc(Br)c(NCCCNC(=O)C3CCCC3)n2)cc1 fall in?
range 2

State the class of the molecule shown: O=C(Nc1nc2ccccc2s1)c1ccc(F)cc1
range 3

# classify by growth band: Cc1sc2nc(NCCc3c[nH]c4ccc(Cl)cc34)[nH]c(=O)c2c1C
range 2

Dear colleague, I would appreciate it if you could identify the bin for CC(C)Cn1cnc2c(=O)[nH]c(N)nc21 and reply at your convenience.
range 3

Which class does Nc1[nH]n2cc(-c3ccccc3)nc2c1N=Nc1ccc(S(N)(=O)=O)cc1 fall in?
range 2

Would you mind sorting Nc1nc2ccc(-c3nc4ccc5[nH]ncc5c4c4c3CCCC4)cc2s1 into the appropriate category?
range 3

Into which bin does this molecule go? Nc1cc(C(=O)NC[C@H]2CN(c3ccc(N4CCC(C(=O)O)CC4)cc3)C(=O)O2)ccc1Cl
range 3

Sort into band: O=C(Nc1ccc(OS(=O)(=O)c2ccc(F)cc2)cc1)C1CCCCCC1
range 3
